# Test system: C. albicans 527/14
# Experiment: Microdilution assay, MIC and MFC
# Type: cell-based
# Experimental setup: Candida albicans; C. albicans 527/14; mean ± SD of three replicates; read-out: MFC
Readout label: MFC (µg/mL)
Record the value in µg/mL, omitting the unit from your answer.

Worked set:
INPUT: Fill in: MFC of O=c1c(O)c(-c2ccc(O)c(O)c2)oc2cc(O)cc(O)c12 is ___
OUTPUT: 150

INPUT: Fill in: MFC of O=c1cc(-c2ccc(O)c(O)c2)oc2cc(O)cc(O)c12 is ___
OUTPUT: 75

INPUT: Fill in: MFC of C[C@@H]1[C@H](O)[C@@H](C)/C=C/C=C/C=C/C=C/C=C/C=C/C=C/[C@H](O[C@@H]2O[C@H](C)[C@@H](O)[C@H](N)[C@@H]2O)C[C@@H]2O[C@](O)(C[C@@H](O)C[C@@H](O)[C@H](O)CC[C@@H](O)C[C@@H](O)CC(=O)O[C@H]1C)C[C@H](O)[C@H]2C(=O)O [Amphotericin B, amphotericin B, reference compound] is ___
OUTPUT: 1.25

INPUT: Fill in: MFC of O=c1c(O[C@@H]2O[C@H](CO)[C@@H](O)[C@H](O)[C@H]2O)c(-c2ccc(O)c(O)c2)oc2cc(O)cc(O)c12 is ___
OUTPUT: 75

INPUT: Fill in: MFC of CC(=O)N1CCN(c2ccc(OCC3COC(Cn4ccnc4)(c4ccc(Cl)cc4Cl)O3)cc2)CC1 (stereo not drawn) [Ketoconazole, reference compound] is ___
OUTPUT: 6.2

Kindly review the next molecule as well.
INPUT: Fill in: MFC of C[C@@H]1O[C@@H](OC[C@H]2O[C@@H](Oc3c(-c4ccc(O)c(O)c4)oc4cc(O)cc(O)c4c3=O)[C@H](O)[C@@H](O)[C@@H]2O)[C@H](O)[C@H](O)[C@H]1O is ___
OUTPUT: 75

----------
# Experiment: Cytotoxicity, Sulforhodamine B assay
# Experimental setup: pig
Readout label: GI50

Worked set:
INPUT: Fill in: GI50 of C[C@@H]1O[C@@H](Oc2c(-c3ccc(O)c(O)c3)oc3cc(O)cc(O)c3c2=O)[C@H](O)[C@H](O)[C@H]1O [Quercitrin, quercitrin] is ___
OUTPUT: 73 µg/mL

INPUT: Fill in: GI50 of O=c1cc(-c2ccc(O)cc2)oc2cc(O)cc(O)c12 [Apigenin, apigenin] is ___
OUTPUT: > 400 µg/mL

INPUT: Fill in: GI50 of O=c1cc(-c2ccc(O)cc2)oc2cc(O[C@@H]3O[C@H](CO)[C@@H](O)[C@H](O)[C@H]3O)cc(O)c12 [Apigetrin, apigetrin] is ___
OUTPUT: 90 µg/mL

***
INPUT: Fill in: GI50 of O=c1c(O[C@@H]2O[C@H](CO)[C@@H](O)[C@H](O)[C@H]2O)c(-c2ccc(O)c(O)c2)oc2cc(O)cc(O)c12 [Isoquercitrin, isoquercitrin] is ___
OUTPUT: > 400 µg/mL

INPUT: Fill in: GI50 of O=c1cc(-c2ccc(O)c(O)c2)oc2cc(O)cc(O)c12 [Luteolin, luteolin] is ___
OUTPUT: > 400 µg/mL
